Tested on: SK-MEL-28
Assay: Antiproliferative activity against human SK-MEL-28 cells assessed as cell growth at 10 uM incubated for 48 hrs by MTT assay relative to control
Assay type: functional
Details: read-out: Activity
measured.quantity: growth at 10 µM (%)
Report the value in % with no unit label.

Record CCCC(O)Cn1nc(Nc2ccccc2)c(C(=O)OCC)c1N (stereo not drawn) / SK-MEL-28, growth at 10 µM recorded as 97

Record CCCC(O)Cn1nc(Nc2ccc(OC)cc2)c(C(=O)OCC)c1N (stereo not drawn) / SK-MEL-28, growth at 10 µM recorded as 120

Record CCOC(=O)c1c(Nc2cccc(C(F)(F)F)c2)nn(CC(O)c2ccccc2)c1N (stereo not drawn) / SK-MEL-28, growth at 10 µM recorded as 124

Record CCCC(O)Cn1nc(Nc2ccc(Cl)c(Cl)c2)c(C(=O)OCC)c1N (stereo not drawn) / SK-MEL-28, growth at 10 µM recorded as 137

Record CCOC(=O)c1c(Nc2cccc(Cl)c2)nn(CC(O)c2ccccc2)c1N (stereo not drawn) / SK-MEL-28, growth at 10 µM recorded as 144

Record CCOC(=O)c1c(Nc2ccc(Cl)c(Cl)c2)nn(CC(O)c2ccccc2)c1N (stereo not drawn) / SK-MEL-28, growth at 10 µM recorded as 135

Record CCCC(O)Cn1nc(Nc2cccc(C(F)(F)F)c2)c(C(=O)OCC)c1N (stereo not drawn) / SK-MEL-28, growth at 10 µM recorded as 113

Record CCCC(O)Cn1nc(Nc2cccc3ccccc23)c(C(=O)OCC)c1N (stereo not drawn) / SK-MEL-28, growth at 10 µM recorded as 103

* * *

Hi there, I'd appreciate the recorded growth at 10 µM for every entry that follows.
Tested on: MDA-MB-231
Experiment: Antiproliferative activity against human MDA-MB-231 cells assessed as cell growth at 10 uM incubated for 48 hrs by MTT assay relative to control
Type: functional
Conditions: read-out: Activity
Report the value in % with no unit label.

For reference, reported growth at 10 µM for CCOC(=O)c1c(Nc2cccc(C(F)(F)F)c2)nn(CC(O)c2ccccc2)c1N (centres undefined) stands at 162

For reference, reported growth at 10 µM for CCCC(O)Cn1nc(Nc2ccccc2)c(C(=O)OCC)c1N (centres undefined) stands at 103

For reference, reported growth at 10 µM for CCCC(O)Cn1nc(Nc2cccc(Cl)c2)c(C(=O)OCC)c1N (centres undefined) stands at 168

For reference, reported growth at 10 µM for CCCC(O)Cn1nc(Nc2ccc(OC)cc2)c(C(=O)OCC)c1N (centres undefined) stands at 143

For reference, reported growth at 10 µM for CCOC(=O)c1c(Nc2ccc(OC)cc2)nn(CC(O)c2ccccc2)c1N (centres undefined) stands at 147

For reference, reported growth at 10 µM for CCCC(O)Cn1nc(Nc2cccc3ccccc23)c(C(=O)OCC)c1N (centres undefined) stands at 106

For reference, reported growth at 10 µM for CCCC(O)Cn1nc(Nc2cccc(C(F)(F)F)c2)c(C(=O)OCC)c1N (centres undefined) stands at 109

For reference, reported growth at 10 µM for CCCC(O)Cn1nc(Nc2ccccc2Cl)c(C(=O)OCC)c1N (centres undefined) stands at 107

For reference, reported growth at 10 µM for CCCC(O)Cn1nc(Nc2ccc(C)cc2)c(C(=O)OCC)c1N (centres undefined) stands at 158

For reference, reported growth at 10 µM for CCCC(O)Cn1nc(Nc2ccc(Cl)c(Cl)c2)c(C(=O)OCC)c1N (centres undefined) stands at 176

For reference, reported growth at 10 µM for CCOC(=O)c1c(Nc2cccc(Cl)c2)nn(CC(O)c2ccccc2)c1N (centres undefined) stands at 135

For reference, reported growth at 10 µM for CCOC(=O)c1c(Nc2cccc3ccccc23)nn(CC(O)c2ccccc2)c1N (centres undefined) stands at 149

For reference, reported growth at 10 µM for CCOC(=O)c1c(Nc2ccc(Cl)c(Cl)c2)nn(CC(O)c2ccccc2)c1N (centres undefined) stands at 144

For reference, reported growth at 10 µM for CCOC(=O)c1c(Nc2ccccc2Cl)nn(CC(O)c2ccccc2)c1N (centres undefined) stands at 115
